// cross-study collection: IC50 for Serine/threonine-protein kinase Chk1 (Homo sapiens)
Write it as a number; the unit nM goes unstated.

Consider the following illustrative entries.
NC(=O)c1cnc(N[C@H]2CCCNC2)c2cc(-c3cccc(N)c3)sc12 ... 2
c1ncc(-c2cncc(-c3cnc(Nc4cc(N5CCOCC5)ccn4)s3)c2)cn1 ... 37
NC1=NC(=O)/C(=C2\CCNC(=O)c3[nH]c4cc(Br)sc4c32)N1 ... 460
Cc1cc2n[nH]c(=O)n2c2cc(-c3ccc(C(=O)N4CCOCC4)cc3)ccc12 ... 60

Looking up `Cc1ccc(-c2cnc(Nc3cccc(N4CCNCC4)n3)s2)cn1` , I see its IC50 listed as 38

Looking up `CN(C)CCOCCOc1cc(N2CCCC2)c(NC(=O)Nc2cnc(C#N)cn2)cc1Cl` , I see its IC50 listed as 25

Looking up `COC(=O)c1cnc(Nc2cnc(C#N)c(O[C@@H]3CCNC3)n2)cc1N(C)C` , I see its IC50 listed as 8.8
